# System: LOLRI
# measurement_notes: Pre-emergence herbicidal action against LOLRI (Table 8, titled post-emergence at 320 g/ha)
# Type: in vivo, Lolium rigidum
# stated_conditions: table stands in the pre-emergence section
For each record, write down the corresponding Pre-emergence herbicidal action against LOLRI in %.
Numbers only, in %.

• C=CCOCC1CCC2(C1)NC(=O)C(c1c(C)cc(C#CC)cc1Br)=C2OC(=O)OCC (centres unmarked) [Example P-85] = 100
• CC#Cc1cc(C)c(C2=C(O)C3(CCC(COCCC)C3)NC2=O)c(Cl)c1 (centres unmarked) [Example I-68] = 100
• CC#Cc1cc(Br)c(C2=C(OC(=O)OCC)C3(CCC(COCC)C3)NC2=O)c(OCC)c1 (centres unmarked) [Example P-95] = 100
• CC#Cc1cc(C)c(C2=C(OC(=O)OCC)C3(CCC(COCC)C3)NC2=O)c(OC)c1 (centres unmarked) [Example P-49] = 100
• CC#Cc1cc(Cl)c(C2=C(O)C3(CCC(COC)C3)NC2=O)c(OC)c1 (centres unmarked) [Example I-72] = 100
• CC#Cc1cc(F)c(C2=C(O)C3(CCC(COC)C3)NC2=O)c(OC)c1 (centres unmarked) [Example I-40] = 90
• CC#Cc1cc(C)c(C2=C(O)C3(CCC(COCCOC)C3)NC2=O)c(OC)c1 (centres unmarked) = 100

Now for the compound whose Pre-emergence herbicidal action against LOLRI in % we want.
Given the compound CC#Cc1cc(F)c(C2=C(OC(=O)C(C)C)C3(CCC(COC)C3)NC2=O)c(OC)c1 (centres unmarked) [Example P-66] , what is its reported Pre-emergence herbicidal action against LOLRI in %?
90

====

# Test system: DIGSA
# measurement_notes: Post-emergence herbicidal action against DIGSA
# Type: in vivo, Digitaria sanguinalis
# stated_conditions: 80 g/ha, visual assessment about 3 weeks after treatment vs untreated controls
For each record, write down the corresponding Post-emergence action against DIGSA in %.

- CC#Cc1cc(C)c(C2=C(O)C3(CCC(COCCC)C3)NC2=O)c(Cl)c1 (centres unmarked) [Example I-71]: 90%

Please supply Post-emergence action against DIGSA in % for each of the following items, keeping them in order.
1. CC#Cc1cc(F)c(C2=C(OC(=O)OCC)C3(CCC(COCC)C3)NC2=O)c(OC)c1 (centres unmarked) [Example P-61]
2. C#Cc1cc(Cl)c(C2=C(O)C3(CCC(COC)C3)NC2=O)c(OC)c1 (centres unmarked) [Example I-01]
3. CC#Cc1cc(Cl)c(C2=C(OC(=O)OCC)C3(CCC(COC)C3)NC2=O)c(OC)c1 (centres unmarked) [Example P-97]
4. CC#Cc1cc(C)c(C2=C(O)C3(CCC(COCC)C3)NC2=O)c(OC)c1 (centres unmarked) [Example I-30]
5. C=CCOCC1CCC2(C1)NC(=O)C(c1c(C)cc(C#CC)cc1Cl)=C2OC(=O)OCC (centres unmarked) [Example P-72]

100%
90%
100%
100%
90%

Please supply Post-emergence action against DIGSA in % for each of the following items, keeping them in order.
1. CC#Cc1cc(C)c(C2=C(OC(=O)C(C)C)C3(CCC(COCC)C3)NC2=O)c(F)c1 (centres unmarked) [Example P-59]
2. CC#Cc1cc(C)c(C2=C(OC(=O)C(C)C)C3(CCC(COC)C3)NC2=O)c(Cl)c1 (centres unmarked)

1: 100%; 2: 100%

The values you see were collected from patent US20220386606A1.
